Target or test system: UniProt P11597
Sequence (P11597 18-493): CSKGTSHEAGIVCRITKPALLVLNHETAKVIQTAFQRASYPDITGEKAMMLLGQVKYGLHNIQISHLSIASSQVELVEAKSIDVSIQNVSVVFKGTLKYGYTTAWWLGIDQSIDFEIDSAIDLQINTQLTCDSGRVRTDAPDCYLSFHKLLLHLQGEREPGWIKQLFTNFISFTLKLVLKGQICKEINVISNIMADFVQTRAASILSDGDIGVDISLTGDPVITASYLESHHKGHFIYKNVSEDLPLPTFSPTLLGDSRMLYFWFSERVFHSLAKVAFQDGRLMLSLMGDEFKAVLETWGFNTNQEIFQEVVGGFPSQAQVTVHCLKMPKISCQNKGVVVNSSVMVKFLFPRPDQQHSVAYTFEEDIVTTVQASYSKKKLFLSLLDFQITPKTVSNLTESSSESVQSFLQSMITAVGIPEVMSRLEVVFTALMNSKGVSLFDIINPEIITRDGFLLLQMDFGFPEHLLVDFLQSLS
Run description: Assay of cholesteryl ester transfer protein inhibitory activity, 50% human plasma-containing measurement system
Format: biochemical
Assay context: BODIPY-CE-ME donor, VLDL-LDL acceptor, reaction at 37° C. for 60 min.
Attribute measured: IC50 (µM)
Unit µM implied. Number only.

// below: answered molecules
[
  {
    "Molecule": "O=C(N[C@H](Cc1cccc(OC(F)(F)C(F)F)c1)[C@@H](O)c1ccc(F)cc1)c1cccc2c1C=CCCCC2 (racemic) [Example 126]",
    "IC50 / µM": 1
  },
  {
    "Molecule": "O=C(N[C@H](Cc1cccc(OC(F)(F)C(F)F)c1)[C@@H](O)c1ccc(F)cc1)c1ccc(F)c2ccccc12 (racemic) [Example 125]",
    "IC50 / µM": 2
  }
]

Notebook: O=C(NC(Cc1cccc(OC(F)(F)C(F)F)c1)C(O)c1ccc(F)cc1)c1ccc(F)c2ccccc12 (stereo not drawn) [228(+)-form] , IC50 read as 0.99
